Below, each entry is listed alongside its reported MIC.
- Tested on: Staphylococcus aureus 209 P JC-1
- test: Minimum inhibitory concentration (MIC)
- Type: cell-based
- condition-parameters: 209PJC1; Staphylococcus aureus 209 P JC-1; bacterial suspension 10^6 cells/ml; sodium salts tested; read-out: Minimum inhibitory concentration
- Excerpt: The cephalosporin derivatives of the present invention are novel substances, and the antimicrobial activities of their sodium salts are shown by the minimum inhibitory concentrations (MIC, µg/ml) in Table 1, as compared with a typical known cephalosporin compound.
Your answer should be a plain number; it is taken to be in µg/mL.

Recorded results for 3 compounds are shown here.
compound: CO[C@@]1(NC(=O)C(NC(=O)c2ccc(O)c(O)c2)c2csc(N)n2)C(=O)N2C(C(=O)O)=C(COC(C)=O)CS[C@@H]21 (mixture of isomers)
subject-of-test: Staphylococcus aureus 209 P JC-1
unit-spec: µg/mL
MIC: 1.56

compound: CO[C@@]1(NC(=O)C(NC(=O)c2cccc(OC(C)=O)c2OC(C)=O)c2csc(N)n2)C(=O)N2C(C(=O)O)=C(COC(C)=O)CS[C@@H]21 (mixture of isomers)
subject-of-test: Staphylococcus aureus 209 P JC-1
unit-spec: µg/mL
MIC: 6.25

compound: CC(=O)OCC1=C(C(=O)O)N2C(=O)[C@@H](NC(=O)C(NC(=O)c3cc(OC(C)=O)c(OC(C)=O)c(OC(C)=O)c3)c3csc(N)n3)[C@H]2SC1 (mixture of isomers)
subject-of-test: Staphylococcus aureus 209 P JC-1
unit-spec: µg/mL
MIC: 1.56

Return reported MIC; argument: CC(=O)OCC1=C(C(=O)O)N2C(=O)[C@@H](NC(=O)C(NC(=O)c3cccc(O)c3)c3csc(N)n3)[C@H]2SC1 (mixture of isomers)
0.39

Return reported MIC; argument: CC(=O)OCC1=C(C(=O)O)N2C(=O)[C@@H](NC(=O)C(NC(=O)c3ccc(O)c(O)c3)c3csc(N)n3)[C@H]2SC1 (mixture of isomers)
0.39
